B1: library; numbered along this chain (parent)
chain: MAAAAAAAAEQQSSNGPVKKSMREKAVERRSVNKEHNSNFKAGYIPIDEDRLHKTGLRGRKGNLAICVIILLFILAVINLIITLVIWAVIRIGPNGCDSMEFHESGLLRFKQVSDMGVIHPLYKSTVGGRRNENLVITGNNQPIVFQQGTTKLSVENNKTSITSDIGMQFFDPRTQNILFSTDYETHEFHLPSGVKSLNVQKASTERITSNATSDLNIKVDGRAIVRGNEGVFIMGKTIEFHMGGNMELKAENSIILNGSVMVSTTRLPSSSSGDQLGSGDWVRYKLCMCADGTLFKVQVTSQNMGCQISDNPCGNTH

Variants of: B1
Assay: SGCB cell-surface expression functional score (HA stain, bin4 vs bin1, normalised to synonymous) (log10 ratio); higher = more cell-surface SGCB (functional)
Entries and their SGCB cell-surface expression functional score (log10) values follow.
Please give only the number in your answer, with no unit.

Would you please look over these solved cases?
>>> df
   sequence_change  recorded_number
0            I208D             -1.1
1            V226L             0.56
2            M247G             0.38
3              A3H              0.3

stdin: // Input: S154M . Output its SGCB cell-surface expression functional score (log10) only.
stdout: 0.54

stdin: Specify measured SGCB cell-surface expression functional score (log10) for V68E .
stdout: -0.1

stdin: Supply reported SGCB cell-surface expression functional score (log10) belonging to this variant: E240I
stdout: 0.23

stdin: Specify measured SGCB cell-surface expression functional score (log10) for V127S .
stdout: -1.34
